Test system: Candida tropicalis
Experiment: Antifungal activity against Candida tropicalis ATCC 1369 assessed as fungal growth inhibition incubated for 72 hrs by CLSI based susceptibility test
Format: functional
Readout Kind: MIC50 (µg/mL)
Your answer should be a plain number; it is taken to be in µg/mL.

// sample Cc1c(COc2cccc(CN[C@H](Cn3ccnc3)C(=O)OC(C)C)c2)cccc1-c1ccccc1 , its MIC50 was 0.5

// sample CCOC(=O)[C@@H](Cn1ccnc1)NCc1cccc(OCc2cccc(-c3ccccc3)c2C)c1 , its MIC50 was 0.5

// sample CCOC(=O)[C@@H](Cn1cncn1)NC(=O)C1CCCN(C(=O)c2cccc(-c3ccccc3)c2)C1 (some centres not stated) , its MIC50 was 0.5

// sample Cc1c(COc2cccc(CN[C@H](Cn3cncn3)C(=O)OC(C)C)c2)cccc1-c1ccccc1 , its MIC50 was 2

// sample COC(=O)[C@@H](Cn1ccnc1)NCc1cccc(OCc2cccc(-c3ccccc3)c2C)c1 , its MIC50 was 2

// sample CCOC(=O)[C@@H](Cn1cncn1)NCc1cccc(OCc2cccc(-c3ccccc3)c2C)c1 , its MIC50 was 1

// sample Cc1c(CN2CCCC(C(=O)N[C@H](Cn3ccnc3)C(=O)OC(C)C)C2)cccc1-c1ccccc1 (some centres not stated) , its MIC50 was 1
